This collection of values is drawn from patent US20250154144A1.

# Measurement target: FLT3 ITD, F691L (Homo sapiens, UniProt P36888, F691L, form not given)
# Method: DiscoverX KINOMEscan competition binding, FLT3 ITD, F691L
# Test context: read-out: FLT3 ITD, F691L Kd
Attribute measured: Kd (nM)
Give bare numbers, in nM.

# example entries with known answers
| Molecule | Units symbol | Readout value |
| --- | --- | --- |
| COc1cc2ncc(-c3cncc(N[C@H]4CNCC[C@@H]4F)n3)n2nc1C1CC1 | nM | 0.048 |
| COc1cc2ncc(-c3ccnc(N[C@H]4CNC[C@@H]4F)n3)n2nc1C1CC1 | nM | 0.085 |

Lab note: next molecule to report on.
Query block: Given CC(O)(c1cn2c(-c3ccnc(N[C@H]4CNCC[C@@H]4F)n3)cnc2cn1)C(F)(F)F (single isomer, unassigned) , state its recorded Kd.
Result block: 1.8

* * *

Consider the following compounds; for each one, report its Excess HSA Score.
# Test system: MOLM14(D835Y) cells
# Format: cell-based
# Test context: MOLM14(D835Y) cells, 10 × 10; combination with Eprenetapopt/APR-246
Give bare numbers.

| Compound | Excess HSA Score |
| --- | --- |
| COc1ccn2c(-c3ccnc(N[C@H]4CNC[C@@H]4F)n3)cnc2c1 | 330.3 |

Please state, for each entry, its recorded Excess HSA Score.
1. COc1ccn2c(-c3cncc(N[C@@H]4CCCNC4)n3)cnc2c1
2. F[C@H]1CCNC[C@@H]1Nc1cncc(-c2cnc3cc(OC4CC4)ccn23)n1
3. COc1cc2ncc(-c3ccnc(N[C@H]4CNCC[C@@H]4F)n3)n2cc1C(C)(C)O
4. COc1cc2ncc(-c3ccnc(N[C@@H]4CCCNC4)n3)n2cc1C(C)(C)O
5. COc1cc2ncc(-c3cncc(N[C@H]4CNCC[C@@H]4F)n3)n2nc1C1CC1
6. FC(F)COc1ccn2c(-c3ccnc(N[C@H]4CNCC[C@@H]4F)n3)cnc2c1
7. CC(O)(c1cn2c(-c3ccnc(N[C@H]4CNCC[C@@H]4F)n3)cnc2cn1)C(F)(F)F (single isomer, unassigned)

Result block:
1: −154.6246; 2: 381.9; 3: 477.7; 4: 75.21; 5: 143; 6: −279.9; 7: −80.14

Query block: Given COc1cc2ncc(-c3ccnc(N[C@@H]4CCCNC4)n3)n2nc1C1CC1 , state its recorded Excess HSA Score.
Result block: −99.03

* * *

# Tested on: MOLM14(D835Y) cells
# Format: cell-based
# Test context: MOLM14(D835Y), 10 × 10; title compound starting conc. 20000 nM + Azacitidine (5-Azacytidine) starting conc. 20000 nM
Attribute measured: Excess HSA Score
Give bare numbers.

# example entries with known answers
| Compound | Excess HSA Score |
| --- | --- |
| CCc1nc(C(N)=O)c(Nc2ccc(N3CCC(N4CCN(C)CC4)CC3)c(OC)c2)nc1NC1CCOCC1 [Gilteritinib hemifumarate, Gilteritinib, reference compound] | −117 |
| Cc1cc(-c2nc(C(=O)Nc3cc4oc(N5CCOCC5)nc4nc3N3CC[C@@H](O)C3)co2)ccn1 [CA-4948, reference compound] | −612.1 |
| Cc1cnc(-c2ccc(-c3ccc(NC(=O)Nc4c(F)cc(F)cc4F)cc3F)c3c2C(=O)NC3)[nH]1 [CG-806, reference compound] | −51.33 |

Query block: What reported Excess HSA Score corresponds to COc1cc2ncc(-c3cncc(N[C@H]4CNCC[C@@H]4F)n3)n2nc1C1CC1 on MOLM14(D835Y) cells?
Result block: −49.15

* * *

# Measurement target: FLT3 Autoinh. (Homo sapiens, UniProt P36888)
# Sequence (P36888 564-993 limits assumed): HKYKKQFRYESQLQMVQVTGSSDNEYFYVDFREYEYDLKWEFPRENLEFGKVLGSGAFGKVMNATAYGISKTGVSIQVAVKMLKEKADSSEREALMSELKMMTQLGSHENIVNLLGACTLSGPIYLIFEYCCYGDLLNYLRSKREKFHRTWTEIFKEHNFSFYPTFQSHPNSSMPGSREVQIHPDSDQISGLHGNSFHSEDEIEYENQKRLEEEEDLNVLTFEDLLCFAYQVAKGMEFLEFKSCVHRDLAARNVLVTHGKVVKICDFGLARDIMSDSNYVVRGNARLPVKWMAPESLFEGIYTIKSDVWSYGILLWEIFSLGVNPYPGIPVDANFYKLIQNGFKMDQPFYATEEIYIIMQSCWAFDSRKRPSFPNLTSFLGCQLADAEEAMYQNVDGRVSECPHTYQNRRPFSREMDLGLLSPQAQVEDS
Consider the following molecules; for each one, report its Kd.
Answers are plain numbers, in nM.

# example entries with known answers
| Molecule | Units symbol | Kd |
| --- | --- | --- |
| COc1cc2ncc(-c3cncc(N[C@H]4CNCC[C@@H]4F)n3)n2nc1C1CC1 | nM | 25 |
| COc1cc2ncc(-c3cncc(N[C@H]4CNC[C@@H]4F)n3)n2nc1C1CC1 | nM | 33 |
| CC(O)(c1cn2c(-c3ccnc(N[C@H]4CNCC[C@@H]4F)n3)cnc2cn1)C(F)(F)F (single isomer, unassigned) | nM | 25 |

Please state, for each entry, its recorded Kd.
1. COc1cc2ncc(-c3ccnc(N[C@@H]4CCCNC4)n3)n2cc1C(C)(C)O
2. COc1cc2ncc(-c3ccnc(N[C@H]4CNCC[C@@H]4F)n3)n2nc1C1CC1

Result block:
1: 2.3; 2: 40

* * *

Consider the following compounds; for each one, report its Excess HSA Score.
# System: THP1 cells
# Method: Combination drug screening, Cell Titer Glo, 10 × 10 matrix, THP1 cells
# Type: cell-based
# Test context: THP1 cells, 10 × 10; combination with Trametinib
Numbers only.

# example entries with known answers
| Smiles str | Readout value |
| --- | --- |
| FC(F)COc1ccn2c(-c3ccnc(N[C@H]4CNCC[C@@H]4F)n3)cnc2c1 | −463.7 |
| COc1cc2ncc(-c3ccnc(N[C@@H]4CCCNC4)n3)n2nc1C1CC1 | −475.4 |

Query block: Given F[C@H]1CCNC[C@@H]1Nc1cncc(-c2cnc3cc(OC4CC4)ccn23)n1 , state its recorded Excess HSA Score.
Result block: 300.014

* * *

# Test system: MOLM14(D835Y) cells
# Format: cell-based
# Test context: MOLM14(D835Y) cells, 10 × 10; combination with Venetoclax (ABT-199)
Consider the following compounds; for each one, report its Excess HSA Score.
One number for each entry.

# example entries with known answers
| Compound | Attribute measured | Readout value |
| --- | --- | --- |
| COc1ccn2c(-c3cncc(N[C@@H]4CCCNC4)n3)cnc2c1 | Excess HSA Score | −862.5 |
| COc1cc2ncc(-c3ccnc(N[C@H]4CNCC[C@@H]4F)n3)n2cc1C(C)(C)O | Excess HSA Score | −803.3 |
| FC(F)COc1ccn2c(-c3ccnc(N[C@H]4CNCC[C@@H]4F)n3)cnc2c1 | Excess HSA Score | −315.6 |

Please state, for each entry, its recorded Excess HSA Score.
1. COc1cc2ncc(-c3cncc(N[C@H]4CNCC[C@@H]4F)n3)n2nc1C1CC1
2. F[C@H]1CCNC[C@@H]1Nc1cncc(-c2cnc3cc(OC4CC4)ccn23)n1
3. CC(O)(c1cn2c(-c3ccnc(N[C@H]4CNCC[C@@H]4F)n3)cnc2cn1)C(F)(F)F (single isomer, unassigned)

Result block:
["−1890", "−1232.2388", "−1396"]

Please state, for each entry, its recorded Excess HSA Score.
1. COc1cc2ncc(-c3ccnc(N[C@@H]4CCCNC4)n3)n2nc1C1CC1
2. COc1cc2ncc(-c3ccnc(N[C@@H]4CCCNC4)n3)n2cc1C(C)(C)O
3. COc1ccn2c(-c3ccnc(N[C@H]4CNC[C@@H]4F)n3)cnc2c1

Result block:
−1391
−1120.4885
−1089

* * *

# Measurement target: FLT3 (Homo sapiens, UniProt P36888)
# Method: Reaction Biology NanoBRET target engagement assay in HEK-293 cells, FLT3
# Test context: NanoBRET FLT3 IC50, HEK-293 cells
pIC50: −log10 of the molar value.
Would you mind labelling by pIC50? At or over 6 is fulfilled, under is not fulfilled.

// known answers, use as guide
| Compound | Class assignment |
| --- | --- |
| CC(C)(O)c1ccc2ncc(-c3cncc(N[C@H]4CNCC[C@@H]4F)n3)n2c1 | not fulfilled |
| COc1cc2ncc(-c3ccnc(N[C@H]4CNCC[C@@H]4F)n3)n2cc1C(C)(C)O | fulfilled |
| CC(O)(c1cn2c(-c3cncc(N[C@H]4CNCC[C@@H]4F)n3)cnc2cn1)C(F)(F)F (single isomer, unassigned) | not fulfilled |
| FC(F)COc1ccn2c(-c3cncc(N[C@H]4CNCC[C@@H]4F)n3)cnc2c1 | fulfilled |

Continue with the compound presented below.
Query block: Is pIC50 at least 6? Consider COc1cc2ncc(-c3ccnc(N[C@H]4CNCC[C@@H]4F)n3)n2nc1C1CC1
Result block: fulfilled
